Biological target: modified hASL^Lys3UUU
Test: fluorescent binding assay of fluorescein-labeled peptides, binding constants
Conditions: Modified hASL^Lys3UUU; N-terminal fluorescein peptide, phosphate buffer pH 6.8, ASL 0-3 μM
Procedure: Fifteen-amino acid peptides were selected from the sequences predicted in silico and were chemically synthesized, each with fluorescein (Flc) at the N-terminus. […] Fluorescent assays were conducted in phosphate buffer (10 mM Na2HPO4 and 10 mM KH2PO4, pH 6.8) in low volume 384 well plates. […] All plates were read using a plate reader fitted with fluorescein specific filters (PerkinElmer EnVision) which was optimized for each plate and peptide before each experiment. […]
Where a SMILES comes first, the peptide text is derived from it.
experimental.endpoint: pKd
Bear in mind: pKd is minus log10 of a mol/L concentration; give just that figure.

INSERT INTO assay_data (compound, numeric_value) VALUES
  ('CC(C)C[C@H](NC(=O)[C@H](CO)NC(=O)[C@@H]1CCCN1C(=O)[C@H](Cc1ccccc1)NC(=O)[C@H](CO)NC(=O)[C@@H](NC(=O)[C@H](CO)NC(=O)[C@@H](N)Cc1ccccc1)C(C)C)C(=O)N1CCC[C@H]1C(=O)N[C@@H](C)C(=O)N1CCC[C@H]1C(=O)N1CCC[C@H]1C(=O)N[C@@H](CC(=O)O)C(=O)N[C@@H](CCCNC(=N)N)C(=O)N[C@@H](CO)C(=O)O [Peptide P1, FSVSFPSLPAPPDRS, reference compound] (H-FSVSFPSLPAPPDRS-OH)', 6.89);

Okay, next one:
# input Answer with the recorded pKd for the compound listed here: CC(C)C[C@H](NC(=O)[C@H](Cc1ccccc1)NC(=O)[C@H](C)NC(=O)[C@H](Cc1c[nH]cn1)NC(=O)[C@H](Cc1c[nH]cn1)NC(=O)[C@@H](NC(=O)[C@@H](NC(=O)[C@@H](N)CCCNC(=N)N)C(C)C)[C@@H](C)O)C(=O)NCC(=O)N[C@@H](C)C(=O)N[C@@H](Cc1c[nH]cn1)C(=O)N[C@@H](CCCNC(=N)N)C(=O)N[C@H](C(=O)N[C@H](C(=O)NCC(=O)O)C(C)C)[C@@H](C)O [Peptide P6, RVTHHAFLGAHRTVG, reference compound] (H-RVTHHAFLGAHRTVG-OH)
# output 6.30

* * *

Biological target: modified hASL^Lys3UUU
Test: fluorescent binding assay of fluorescein-labeled peptides, binding constants
Conditions: Modified hASL^Lys3UUU; N-terminal fluorescein peptide, phosphate buffer pH 6.8, ASL 0-3 μM
Where a SMILES comes first, the peptide text is derived from it.
experimental.endpoint: Kd (nM)
Hi! Could you send only the number? It should be in nM, unit omitted.

# input State its Kd for this compound: CSCC[C@H](NC(=O)[C@H](CCCNC(=N)N)NC(=O)[C@H](Cc1c[nH]c2ccccc12)NC(=O)[C@H](CC(C)C)NC(=O)[C@@H]1CCCN1C(=O)[C@H](Cc1c[nH]cn1)NC(=O)[C@H](Cc1ccccc1)NC(=O)[C@H](CO)NC(=O)[C@H](Cc1c[nH]cn1)NC(=O)[C@H](Cc1c[nH]cn1)NC(=O)[C@H](CCC(N)=O)NC(=O)[C@H](Cc1c[nH]c2ccccc12)NC(=O)[C@@H](N)CCCNC(=N)N)C(=O)N[C@@H](CO)C(=O)NCC(=O)O [Peptide P31, RWQHHSFHPLWRMSG] (H-RWQHHSFHPLWRMSG-OH)
# output 580
